tgt: cloned human dopamine D3 receptors (Homo sapiens, UniProt P35462)
Construct: expressed in transfected cells; membrane homogenate
Sequence (P35462 whole entry): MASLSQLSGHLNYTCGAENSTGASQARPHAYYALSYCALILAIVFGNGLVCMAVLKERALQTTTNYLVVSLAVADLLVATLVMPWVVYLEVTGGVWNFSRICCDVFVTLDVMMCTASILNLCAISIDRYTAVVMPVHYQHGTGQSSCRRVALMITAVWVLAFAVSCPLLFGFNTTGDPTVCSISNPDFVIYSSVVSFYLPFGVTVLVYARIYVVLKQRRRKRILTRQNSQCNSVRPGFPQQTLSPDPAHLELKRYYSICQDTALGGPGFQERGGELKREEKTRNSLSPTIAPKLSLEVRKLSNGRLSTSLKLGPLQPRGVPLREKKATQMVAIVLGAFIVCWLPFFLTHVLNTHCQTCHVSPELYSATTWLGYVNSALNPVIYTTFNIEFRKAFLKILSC
experimental-details: [N-Methyl-3H]Spiroperidol binding to cloned human dopamine D3 receptors (Protocol 1)
particulars: the 20th table; read-out: D3 Ki
As shown below, each of these compounds has a reported pKi value.
# pKi = -log10(concentration in molar units)

Some solved cases for reference:
- compound: "O=C(NCc1ccoc1CN1CCN(c2csc3cc(F)ccc23)CC1)c1cccnc1Cl [compound 825853]"
  tgt: "cloned human dopamine D3 receptors (Homo sapiens, UniProt P35462)"
  pKi: 6.63
- compound: "O=C(NCc1ccoc1CN1CCN(c2csc3cc(F)ccc23)CC1)c1ccc(-c2ccccc2)cc1 [compound 825848]"
  tgt: "cloned human dopamine D3 receptors (Homo sapiens, UniProt P35462)"
  pKi: 6.60
- compound: "O=C(NCc1ccoc1CN1CCN(c2csc3cc(F)ccc23)CC1)c1ccc(F)cc1 [compound 825845]"
  tgt: "cloned human dopamine D3 receptors (Homo sapiens, UniProt P35462)"
  pKi: 6.69

State, in one line, measured pKi of O=C(NCc1ccoc1CN1CCN(c2csc3cc(F)ccc23)CC1)c1cccc(C(F)(F)F)c1 [compound 825841] 6.84

Supply recorded pKi for COc1ccccc1C(=O)NCc1ccoc1CN1CCN(c2csc3cc(F)ccc23)CC1 [compound 825842] here. 6.27

Specify pKi for COc1cc(OC)cc(C(=O)NCc2ccoc2CN2CCN(c3csc4cc(F)ccc34)CC2)c1 [compound 825837] and stop. 6.72

Please give measured pKi of the following entry: O=C(NCc1ccoc1CN1CCN(c2csc3cc(F)ccc23)CC1)c1cc2ccccc2s1 [compound 825844] 6.22

====

Listing: pKi of selected molecules
tgt: cloned human dopamine D3 receptors (Homo sapiens)
Construct: expressed in transfected cells; membrane homogenate
experimental-details: [N-Methyl-3H]Spiroperidol binding to cloned human dopamine D3 receptors (Protocol 1)
particulars: the 13th table, unit inferred; read-out: D3Ki
Excerpt: [N-Methyl-^3H]Spiroperidol Binding to Cloned Human Dopamine D3 Receptors This assay measures the in vitro activity of compounds on cloned human dopamine (D3) receptors and predicts the direct dopamine-blocking properties of putative neuropsychiatric agents at human dopamine D3 receptors. The D3 gene was isolated from a human striatal cDNA library (Stratagene). The gene was sequenced and sub-cloned into the expression vector RC/RSV (Invitrogen). […]
The value called pKi is obtained by taking minus log10 of the concentration in mol/L.

- molecule: "O=C(NCCCCCN1CCC(c2noc3ccsc23)CC1)c1ccc(Cl)cc1"
  pKi: 6.80
- molecule: "O=C(NCCCCN1CCCN(c2csc3cc(C(F)(F)F)ccc23)CC1)c1cccc(F)c1"
  pKi: 7.15
- molecule: "O=C(NCCCCN1CCCN(c2csc3cc(F)ccc23)CC1)c1ccc(OC(F)(F)F)cc1"
  pKi: 8.35
- molecule: "Cn1cccc1C(=O)NCCCCN1CCCN(c2csc3cc(F)ccc23)CC1"
  pKi: 8.16
- molecule: "O=C(NCCCCCN1CCCN(c2csc3cc(F)ccc23)CC1)c1ccc2[nH]ccc2c1"
  pKi: 7.92
- molecule: "Cc1nn(-c2ccccc2)nc1C(=O)NCCCCN1CCCN(c2csc3cc(F)ccc23)CC1"
  pKi: 8.05
- molecule: "Cn1c(C(=O)NCCCCN2CCCN(c3csc4cc(F)ccc34)CC2)cc2ccccc21 [822228G]"
  pKi: 8.75

Name the recorded pKi of the molecule listed here: O=C(NCCCCCN1CCC(c2noc3ccsc23)CC1)c1cc2ccccc2s1 6.79

====

tgt: cloned human dopamine D3 receptors (Homo sapiens)
Construct: expressed in transfected cells; membrane homogenate
experimental-details: [N-Methyl-3H]Spiroperidol binding to cloned human dopamine D3 receptors (Protocol 1)
particulars: read-out: D3K1
Okay, here is how we bin by Ki: bin 1 = under 10 nM, bin 2 = from 10 nM up to 60 nM, bin 3 = 60 nM and over

Worked examples, 6 molecules total:
- molecule: "O=C(NCCCCN1CCN(c2c(Cl)sc3cc(F)ccc23)CC1)c1ccc(Cl)cc1"
  qualitative-label: "bin 1"
- molecule: "O=C(NC/C=C\\CN1CCN(c2csc3cc(C(F)(F)F)ccc23)CC1)c1cccc(Cl)c1"
  qualitative-label: "bin 3"
- molecule: "O=C(NCC1CCC1CN1CCN(c2csc3cc(C(F)(F)F)ccc23)CC1)c1cc2ccccc2s1 (stereo not drawn)"
  qualitative-label: "bin 3"
- molecule: "O=C(NC/C=C\\CN1CCN(c2csc3cc(C(F)(F)F)ccc23)CC1)c1cc(F)cc(F)c1"
  qualitative-label: "bin 3"
- molecule: "COc1ccc(C(=O)NCCCCN2CCN(c3c(Cl)sc4cc(C(F)(F)F)ccc34)CC2)cc1OC"
  qualitative-label: "bin 2"
- molecule: "O=C(NCCCCN1CCN(c2c(Cl)sc3cc(C(F)(F)F)ccc23)CC1)c1ccc(Cl)cc1"
  qualitative-label: "bin 2"

Bin this entry: O=C(NC/C=C/CN1CCN(c2csc3cc(C(F)(F)F)ccc23)CC1)c1cccnc1 bin 2

For the record O=C(NCCCCCN1CCN(c2csc3cc(C(F)(F)F)ccc23)CC1)c1ccc2[nH]ccc2c1 , report the class its Ki corresponds to. bin 1

Hey, which category is O=C(NCCCCCCN1CCN(c2csc3cc(C(F)(F)F)ccc23)CC1)c1cccc(F)c1 in, do you know? bin 1

Using the reported Ki, which band applies to O=C(NCCCCCN1CCN(c2csc3cc(C(F)(F)F)ccc23)CC1)c1cc2ccccc2[nH]1 ? bin 2

Kindly identify the class of O=C(NCCCCN1CCN(c2csc3cc(C(F)(F)F)ccc23)CC1)c1cc2ccccc2s1 [814238A] . bin 1

Which category does the recorded Ki put O=C(NC(CO)CCCN1CCN(c2csc3cc(C(F)(F)F)ccc23)CC1)c1ccccc1C(F)(F)F (stereo not drawn) in? bin 3

Kindly identify the class of COc1ccc(C(=O)NCC2C(CN3CCN(c4csc5cc(C(F)(F)F)ccc45)CC3)C2(C)C)cc1OC (stereo not drawn) . bin 3

State the band of O=C(NCCCCN1CCN(c2c(Cl)sc3cc(C(F)(F)F)ccc23)CC1)c1ccc(Br)cc1 bin 2

Dear colleague, I would appreciate it if you could identify the bin for O=C(NCCCCN1CCN(c2c(Cl)sc3cc(F)ccc23)CC1)c1ccc(C(F)(F)F)cc1 and reply at your convenience. bin 2

====

tgt: cloned human dopamine D3 receptors (Homo sapiens, UniProt P35462)
Construct: expressed in transfected cells; membrane homogenate
experimental-details: [N-Methyl-3H]Spiroperidol binding to cloned human dopamine D3 receptors (Protocol 1)
particulars: Table 2; read-out: D3K1
Each entry below carries its recorded Ki.
Numbers only here, please. The scale is nM.

Use these answered entries as a reference point.
- compound: "O=C(NCCCCCCN1CCN(c2csc3cc(C(F)(F)F)ccc23)CC1)c1ccc2[nH]ccc2c1"
  reading-unit: "nM"
  Ki: 2.7
- compound: "O=C(NCCCCN1CCN(c2csc3cc(C(F)(F)F)ccc23)CC1)c1ccc(-c2ccccc2)cc1 [815547A]"
  reading-unit: "nM"
  Ki: 3.43
- compound: "O=C(NCCCCN1CCN(c2c(-c3ccccc3)sc3cc(F)ccc23)CC1)c1cc2ccccc2s1"
  reading-unit: "nM"
  Ki: 263

Respond only with Ki recorded for O=C(N[C@H](CO)CCCN1CCN(c2csc3cc(C(F)(F)F)ccc23)CC1)c1ccc2ccccc2c1 294

====

tgt: cloned human dopamine D3 receptors (Homo sapiens)
Construct: expressed in transfected cells; membrane homogenate
experimental-details: [N-Methyl-3H]Spiroperidol binding to cloned human dopamine D3 receptors (Protocol 1)
particulars: read-out: D3K1
Below, each entry is listed with its recorded Ki.
Express it in nM; write the number only.

- compound: "O=C(NC/C=C/CN1CCN(c2csc3cc(C(F)(F)F)ccc23)CC1)c1ccccc1"
  reading-unit: "nM"
  Ki: 24

Identify measured Ki associated with O=C(N[C@H](CO)CCCN1CCN(c2csc3cc(C(F)(F)F)ccc23)CC1)c1ccc2c(c1)S(=O)(=O)c1ccccc1C2=O 124

Tell me measured Ki for O=C(NC/C=C\CN1CCN(c2csc3cc(C(F)(F)F)ccc23)CC1)c1ccsc1 please. 20

Look up and report measured Ki for this entry: O=C(NC(CO)CCCN1CCN(c2csc3cc(C(F)(F)F)ccc23)CC1)c1cc2ccccc2s1 (stereo not shown) 208

====

tgt: cloned human dopamine D3 receptors (Homo sapiens)
Construct: expressed in transfected cells; membrane homogenate
experimental-details: [N-Methyl-3H]Spiroperidol binding to cloned human dopamine D3 receptors (Protocol 1)
particulars: the 18th table; read-out: D3 Ki
readout-name: log10(Ki) (log10 of the value in nM)
Field: value | Transform: log10 | Quantity: Ki | Unit: nM

- molecule: "COc1ccc2[nH]c(C(=O)NCc3sccc3CN3CCN(c4csc5cc(F)ccc45)CC3)cc2c1 [compound 826323]"
  log10(Ki): 1.83
- molecule: "O=C(NCc1sccc1CN1CCN(c2csc3cc(F)ccc23)CC1)c1cccc(Cl)c1 [compound 826296]"
  log10(Ki): 2.03
- molecule: "COc1ccccc1C(=O)NCc1sccc1CN1CCN(c2csc3cc(F)ccc23)CC1 [compound 826302]"
  log10(Ki): 1.20
- molecule: "O=C(NCc1sccc1CN1CCN(c2csc3cc(F)ccc23)CC1)c1ccc2cc[nH]c2c1 [compound 826328]"
  log10(Ki): 1.45
- molecule: "O=C(NCc1sccc1CN1CCN(c2csc3cc(F)ccc23)CC1)c1cccc(F)c1 [compound 826303]"
  log10(Ki): 1.81

Specify log10(Ki) for O=C(NCc1sccc1CN1CCN(c2csc3cc(F)ccc23)CC1)c1ccc(-c2ccccn2)s1 [818320G] and stop. 1.05

Recall and state the measured log10(Ki) for O=C(NCc1sccc1CN1CCN(c2csc3cc(F)ccc23)CC1)c1ccc(OC(F)(F)F)cc1 [compound 826298] . 1.77

Please supply the value of reported log10(Ki) for the item O=C(NCc1sccc1CN1CCN(c2csc3cc(F)ccc23)CC1)c1ccc(-c2ccccc2)cc1 [compound 826308] 2.31

Retrieve log10(Ki) measured for O=C(NCc1sccc1CN1CCN(c2csc3cc(F)ccc23)CC1)c1cc2ccccc2[nH]1 [compound 826322] and print it. 2.47

Respond only with log10(Ki) recorded for O=C(NCc1sccc1CN1CCN(c2csc3cc(F)ccc23)CC1)c1cccc(C(F)(F)F)c1 [compound 826301] 1.97

Given O=C(NCc1sccc1CN1CCN(c2csc3cc(F)ccc23)CC1)c1cccnc1Cl [compound 826313] , respond with its log10(Ki). 2.13

Identify log10(Ki) associated with the molecule COc1cc(OC)cc(C(=O)NCc2sccc2CN2CCN(c3csc4cc(F)ccc34)CC2)c1 [compound 826297] 1.49

Report measured log10(Ki); entry is O=C(NCc1sccc1CN1CCN(c2csc3cc(F)ccc23)CC1)c1cccs1 [compound 826295] 1.66

Tell me log10(Ki) reported for O=C(NCc1sccc1CN1CCN(c2csc3cc(F)ccc23)CC1)c1c[nH]c2ccccc12 [compound 826325] 1.73

Find the measured log10(Ki) of O=C(NCc1sccc1CN1CCN(c2csc3cc(F)ccc23)CC1)c1csc(-c2cccnc2)n1 [compound 826316] and report it. 1.51

Note down log10(Ki) recorded for O=C(NCc1sccc1CN1CCN(c2csc3cc(F)ccc23)CC1)c1csnn1 [compound 826317] 1.68

Numbers sourced from patent US7550469B2.
